Target: hCA II (Homo sapiens)
Construct: made in house
Assay: stopped-flow CO2 hydrase assay, hCA II
Format: biochemical
Conditions: mean from three determinations, errors 5–10%
pKi: −log10 of the molar value.
Recorded pKi values for a group of compounds are listed next.

Consider the following illustrative entries.
{"COMPOUND": "CC(=O)c1ccccc1NCc1ccccc1", "MEASURED_METRIC": "pKi", "RESULT": "< 4.00"}
{"COMPOUND": "CCCCC[S+]([O-])c1ccccc1C(N)=O (stereo not drawn)", "MEASURED_METRIC": "pKi", "RESULT": "< 4.00"}
{"COMPOUND": "CCCCSc1ccccc1C(N)=O", "MEASURED_METRIC": "pKi", "RESULT": "< 4.00"}

-- ask Reported pKi, compound O=C(O)c1ccccc1[S@@+]([O-])Cc1ccccc1 [(S)-5] : ____
-- reply 7.03

-- ask Reported pKi, compound CCCCS(=O)(=O)c1ccccc1C(N)=O : ____
-- reply < 4.00

-- ask Reported pKi, compound CCS(=O)(=O)c1ccccc1C(N)=O : ____
-- reply < 4.00
